System: HT-1080;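 note: viability read as CCK-8 absorbance at 450 nm in cells co-exposed to the GPX4 inhibitor RSL3, relative to a 0.01% DMSO vehicle control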
Test: relative cell viability with RSL3 co-treatment (fraction of control); higher = stronger protection from RSL3-induced ferroptosis (higher viability)
Details: 10 µM
Task for the reader: assign each of the following compounds its reported relative cell viability.

Input line: Param item = Cc1cc([C@@H](C)Nc2ccccc2C(=O)O)c2nc(N3CCOCC3)cc(=O)n2c1 ; retrieve measured relative cell viability.
Output line: 0.593

Input line: For O=S(=O)(NCCNC/C=C/c1ccc(Br)cc1)c1cccc2cnccc12 then?
Output line: 0.577

Input line: Moving on to C=CC(=O)Nc1cccc(Oc2nc(Nc3ccc(N4CCN(C)CC4)cc3)ncc2Cl)c1
Output line: 0.337

Input line: Then CCn1c2ccccc2c2cc(Nc3ccnc(NCCCN4CCOCC4)n3)ccc21 ?
Output line: 0.64

Input line: Next compound up: C=CC(=O)Nc1cccc(Nc2nc(Nc3ccc(Oc4ccnc(C(=O)NC)c4)cc3)ncc2F)c1
Output line: 0.6

Input line: Lookup Cc1ccccc1CN1C2=NCCN2C(=O)C2=C1CCN(Cc1ccccc1)C2
Output line: 0.62

Input line: Continue with Cc1csc(-c2nnc(Nc3ccc(Oc4ncccc4-c4ccnc(N)n4)cc3)c3ccccc23)c1
Output line: 0.56

Input line: Item: Cc1cc(Nc2cc(N3CCN(C)CC3)nc(/C=C/c3ccccc3)n2)n[nH]1
Output line: 0.203

Input line: Ok, now CC1=C(C(=O)Nc2cc3cn[nH]c3cc2F)C(c2ccc(C(F)(F)F)cc2)CC(=O)N1 (centres undefined)
Output line: 0.883
